Test system: TGF-β
Assay: Effects on the extracellular matrix (proteoglycan) production by TGF-β in NRK-49F fibroblasts
Format: cell-based
Settings: Rattus norvegicus; test compound 10 μM; NRK-49F cells, 3 ng/ml TGF-β, [35S]-proteoglycan radioactivity, 24 hours; read-out: TGF-β inhibitory rate (%)
OBSERVATION TYPE: inhibition at 10 µM
The reply should read as a number followed by its unit.

Recorded results for 8 compounds are shown here.
Cc1ccc(C(=O)c2cccn2Cc2cnc3cccnc3n2)cc1    46%
Cc1ccc(Cc2cccn2Cc2cnc3ccccc3c2Cl)cc1    74%
Cc1ccc(C(=O)c2cccn2C/C=C/c2ccc(Cl)cc2C(=O)NS(C)(=O)=O)cc1    56%
Cc1ccc(C(=O)c2cccn2C/C=C/c2ccc(Cl)cc2C(=O)O)cc1    91%
CNC(=O)c1cc(Cl)ccc1/C=C/Cn1cccc1C(=O)c1ccc(C)cc1    83%
COC(=O)c1cc(Cl)ccc1/C=C/Cn1cccc1C(=O)c1ccc(O)cc1    90%
COC(=O)c1cc(Cl)ccc1/C=C/Cn1cc(C)cc1C(=O)c1ccc(O)cc1    118%
Cc1ccc(C(=O)c2cccn2Cc2cnc3ccccc3n2)cc1    75%

We now examine a further compound.
Write down the reported inhibition at 10 µM of Cc1ccc(C(=O)c2c(C)ccn2Cc2cnc3ccccc3c2)cc1 , test system: TGF-β.
56%

---

Reported inhibition at 10 µM values for a set of molecules
System: TGF-β
Test: Effects on the extracellular matrix (proteoglycan) production by TGF-β in NRK-49F fibroblasts
Type: cell-based
Conditions: Rattus norvegicus; test compound 10 μM; NRK-49F cells, 3 ng/ml TGF-β, [35S]-proteoglycan radioactivity, 24 hours; read-out: TGF-β inhibitory rate (%)
Protocol: Effects on the Extracellular Matrix Production by TGF-β The effect of the compounds of Examples on the production of proteoglycan when TGF-β was added to fibroblast was evaluated. NRK-49F cells (rat fibroblast) were cultured in Dulbecco's Modified Eagle Medium (DMEM: manufactured by GIBCO) containing 10% bovine serum, and used in this experiment. […] The radioactivity of proteoglycan to be electrophoresed was measured, and the TGF-β inhibitory rate was calculated by the following equation. […]
Number only, in %; omit the unit.

Recorded results for 6 molecules are shown here.
COc1ccc(C(=O)c2cccn2Cc2cnc3ccccc3n2)cc1 [Example 91]    73
Cc1ccc(C(=O)c2cccn2Cc2cnc3cccc(C(=O)O)c3c2)cc1 [Example 43]    66
Cc1ccc(C(=O)c2cccn2Cc2cnc3ccccc3c2)cc1 [Example 2]    61
Cc1ccc(C(O)c2cccn2Cc2cnc3ccccc3c2)cc1 (stereo not drawn) [Example 20]    90
Cc1ccc(C(=O)c2cccn2Cc2ccnc3ccccc23)cc1 [Example 3]    38
C=CCOc1ccc(C(=O)c2cccn2Cc2cnc3ccccc3c2)cc1 [Example 10]    86

Write down the reported inhibition at 10 µM of Cc1ccc(C(=O)c2cccn2Cc2cnc3ncccc3n2)cc1 [Example 73] , test system: TGF-β.
85

Param item: Cc1ccc(C(=O)c2cccn2C/C=C/c2ccccc2C(=O)O)cc1 [Example 19]
72

Param item: Cc1ccc(C(=O)c2cccn2Cc2cnc3cccc(C(N)=O)c3c2)cc1 [Example 31]
38

---

Tested on: TGF-β
Test: Effects on the extracellular matrix (proteoglycan) production by TGF-β in NRK-49F fibroblasts
Type: cell-based
Conditions: Rattus norvegicus; test compound 10 μM; NRK-49F cells, 3 ng/ml TGF-β, [35S]-proteoglycan radioactivity, 24 hours; read-out: TGF-β inhibitory rate (%)
Reported inhibition at 10 µM values for a set of compounds
Number only, in %; omit the unit.

Recorded results for 5 compounds are shown here.
Cc1ccc(C(=O)c2cccn2Cc2cnc3c(/C=C/C(=O)N(C)C)cccc3c2)cc1 [Example 61]    86
Cc1ccc(C(=O)c2cc(C=O)cn2C/C=C/c2ccc(Cl)cc2C(=O)O)cc1 [Example 112]    73
O=C(c1ccc(O)cc1)c1cccn1Cc1cnc2ccccc2c1 [Example 14]    56
Cc1ccc(C(=O)c2cccn2Cc2cnc3ccccc3c2)c(O)c1 [Example 85]    75
CN(C)C(=O)c1ccc(C(=O)c2cccn2Cc2cnc3ccccc3c2)cc1 [Example 76]    58

Can you look up the measured inhibition at 10 µM of Cc1ccc(C(=O)c2cccn2Cc2cnc3c(C#N)cccc3n2)cc1 [Example 66] for me?
94

Param item: Cc1ccc(C(=O)c2cccn2Cc2cnc3c(C#N)cccc3c2)cc1 [Example 38]
40

The reported measurements were obtained from patent US20050227978A1.
